# assay.comment: yeast display, Sf9 membrane polyspecificity reagent, FACS + sequencing; frameworks hold sequencing errors
measurement.name: polyreactivity (PSR sort gate)

Previously resolved entries follow.
QVQLVESGGGLVQAGGSLRLSCAASGRIFWANAMGWYRQAPGKERELVAAISNSGVSTYYADSVKGRFTISRDNAKHTVYLQMNSLKPEDTAVYYCAADRYRKYYYWGQGTLVTVSS	high polyreactivity
QVQLVESGRRLVQAGGSLRLSCAASGRIFGAYARGWSRQAPGKEREMVAAITSRGGNTYYADSVKGRFTISRDNAKNTVYLQMNSLKPEDTAVYYCRYDIWVWWSGAYDYWGQGTQVTVSS	low polyreactivity
QVQLRESGAGGRQPAPELRGERQYFYWSADGLVSQAPGKEREFVAGIDRGTITNYADSVRGRFTISRDNAKKTVYLQMNSLKPEDTAVYYCAVPAYGDPSSYYWGQGTHVTVSS	high polyreactivity
QVQLVESGGGLVQAGGSLRLSCAASGIIFPTYDMGWYRQAPGKERELVAAITWSTGSTTYADSVKGRFTISRDNAKNTVYLQMNSQKPEDTAVYYCNKDSEGSGGEFDYWGQGTQVTVSS	low polyreactivity
QVQLVESGGGLVQAGGSLRLSCAASGIIFSEYAMGWNRKAPGKERELVAAISKSGGRTYYADSVKGRFTISRDNAKNTVYLQMNSLKPEDTAVYYCAARHAPILGDHGMKYWGQGTQVTVSS	high polyreactivity
QVQLVESGGGLVQAGGSLRLSCAASGRMGWYRQAPGKERELVAGITSSGRTYYADSVKGRFTISRDNAKNTVYLQMNSLKPEDTAVYYCATYGYWGQGTQVTVSS	high polyreactivity
QVQLVESGGGLVQEGGSLRLSCAASGSIFFYYAMGWYRQAPGKERELVAAITSSGDSTYYADSVKGRFTISRDNAKNTVYLQMNSLKPVETAVYYCAALYIGYTGYYYWGQGTQVTVSS	low polyreactivity
QVQLVESGGGLVQAGGSLRLSCAASGSIFADYAMGWYRQAPGKERELVAAITYTDDRTYYADSVKGRFTISRDNAKNTVYLQMNSLKPEDTAVYYCNRVFTCRYGYRYEYWGQGSQVTVSS	high polyreactivity
QVQLVESGGGLVQAGGSLRLSCAASGRIFRWYAMGWNRQAPGQERELVAAITRGDITNYADSVKGRFTISRDNAKNTVYLQMNSLKPEDTAVYYCNAQWYDIYDYWGQGSQVTVSS	high polyreactivity
QVQLVESGVGLVQAGGTLRLSCAASGSIFDWNVIGWYRQTPGKERELVASISESTDSTYYADSVKGRFTISRDNAKNTVYFQMNSLKPEDTAVYYCATAYPEWAVWGYDYWGQGTQVTLSS	low polyreactivity

Respond only with polyreactivity (PSR sort gate) recorded for QVQLVESGGGLVQAGGSLRLSCAASGRTFFVYAMGWYRQAPGKVRELVAAISNTGGRTYYADSVKGRFTISRDNAKNTVYLQMNSLKPEDTAVYYCAAPYSGPYRSYEYYWGQGTQVTVSS
low polyreactivity

Respond only with polyreactivity (PSR sort gate) recorded for QVQLVESGGGLVQAGGSLRLSCAASGRIFDLYTMGWYRQAPGKERELVAAIRWSDGSTYYADSVTGRFTISRDNAKNTVYLQMNSLKPEDTAVYYCAADTRTSYYNDDYDYWGQGTQVTVSS
low polyreactivity

Respond only with polyreactivity (PSR sort gate) recorded for QVQLVESGGGLLQAGGSLRLSCAASGFTFRYYAMGWYRQAPGKERELVAAISRSGGSTYYADSVKGRFTISRDNAKNTVYLQMNSLKPEDTAVYYCAADDRYGSRYYYWGQGTQVTVTS
high polyreactivity

Respond only with polyreactivity (PSR sort gate) recorded for QVQLVESGGGLLQAGGSLRLSCAASGSTFVYYAMGWYRQAPGKERELVAAISRSGGNTYYADSVKGRITISRDNAKNTVYLQRNSLKPEDTAVYYSAARSYGVQYYYWGQGTKVTVSS
high polyreactivity

Data provenance: the nanobody polyreactivity screen of Harvey et al. (2022)
